Test system: Streptococcus agalactiae
assay-remarks: Antibacterial activity against Streptococcus agalactiae at 80 ug/ml after 24 hrs by Oxford cup assay
Type: functional
particulars: read-out: IZ
measure: zone of inhibition at 80 µg/mL (mm)
Just the number please, in mm, no unit attached.

• C=C[C@]1(C)C[C@@H](OC(=O)CSC(C)(C)CNC(=O)c2ccc(OC)cc2)[C@]2(C)[C@H](C)CC[C@]3(CCC(=O)[C@H]32)[C@@H](C)[C@@H]1O = 16

Incoming: Which zone of inhibition at 80 µg/mL value belongs to C=C[C@]1(C)C[C@@H](OC(=O)CSC(C)(C)CNC(=O)c2ccc(C)cc2)[C@]2(C)[C@H](C)CC[C@]3(CCC(=O)[C@H]32)[C@@H](C)[C@@H]1O ?
Outgoing: 9.82

Incoming: What does the record list as zone of inhibition at 80 µg/mL for C=C[C@]1(C)C[C@@H](OC(=O)CSC(C)(C)CNC(=O)c2ccc(N)cc2)[C@]2(C)[C@H](C)CC[C@]3(CCC(=O)[C@H]32)[C@@H](C)[C@@H]1O ?
Outgoing: 10.9
